All figures here come from patent US20240116985A1.

NanoBRET Abs IC50 reference
Biological target: T1, B-cat-Halo (beta-catenin HaloTag NanoBRET construct expressed in HEK293 cells) (Homo sapiens (Human), UniProt P35222 1-781)
T1 sequence: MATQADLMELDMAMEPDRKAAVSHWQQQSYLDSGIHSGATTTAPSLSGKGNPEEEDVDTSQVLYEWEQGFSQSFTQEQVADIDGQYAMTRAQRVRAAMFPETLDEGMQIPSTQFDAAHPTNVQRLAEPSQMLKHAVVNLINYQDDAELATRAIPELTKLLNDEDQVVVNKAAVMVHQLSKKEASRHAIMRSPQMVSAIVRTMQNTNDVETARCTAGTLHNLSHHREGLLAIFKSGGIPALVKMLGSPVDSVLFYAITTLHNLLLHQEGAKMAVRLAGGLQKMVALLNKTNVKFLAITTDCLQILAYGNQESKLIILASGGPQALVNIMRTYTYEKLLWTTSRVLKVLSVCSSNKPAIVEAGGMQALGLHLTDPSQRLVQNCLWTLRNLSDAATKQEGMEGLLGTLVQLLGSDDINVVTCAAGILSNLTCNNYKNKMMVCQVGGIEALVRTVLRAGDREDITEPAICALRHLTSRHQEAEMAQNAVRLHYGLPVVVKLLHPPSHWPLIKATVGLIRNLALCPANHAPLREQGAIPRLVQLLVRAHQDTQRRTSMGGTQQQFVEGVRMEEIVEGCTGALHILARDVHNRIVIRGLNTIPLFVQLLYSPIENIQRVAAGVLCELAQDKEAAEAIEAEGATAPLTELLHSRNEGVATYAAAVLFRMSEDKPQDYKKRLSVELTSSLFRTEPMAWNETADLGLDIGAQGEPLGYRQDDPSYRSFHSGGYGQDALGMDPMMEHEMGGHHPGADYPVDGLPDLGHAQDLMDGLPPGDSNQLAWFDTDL
Assay: cell-based or functional assay
Starred links: 1 amine or outer side, 2 acyl side, 3 side chain; linkers in the order of their positions; H or OH if unused. Positions of bridges follow the written chain, without caps; N, C: chain ends. Non-standard residues stand in square brackets, D forms with d. Primed or numbered codes have the meaning given here. *: point of attachment. PyrS2″ = (S)-3-amino-1-((pent-4-en-1-yloxy)carbonyl)pyrrolidine-3-carboxylic acid (stapling residue), C=CCCCOC(=O)N1CC[C@@](N[*:1])(C(=O)[*:2])C1; B5(4) = 2,2-bis(4-pentenyl)glycine = 2-amino-2-(pent-4-en-1-yl)hept-6-enoic acid (stitching residue), C=CCCCC(CCCC=C)(N[*:1])C(=O)[*:2]; B5(5) = 2,2-bis(4-pentenyl)glycine, 2-amino-2-(pent-4-en-1-yl)hept-6-enoic acid (stitching residue), C=CCCCC(CCCC=C)(N[*:1])C(=O)[*:2]; B5(33) = 2-amino-2-(pent-4-en-1-yl)hept-6-enoic acid (bis-pentenylglycine, two olefin side chains), C=CCCCC(CCCC=C)(N[*:1])C(=O)[*:2]; PyrS2 = (S)-3-amino-1-((pent-4-en-1-yloxy)carbonyl)pyrrolidine-3-carboxylic acid, C=CCCCOC(=O)N1CC[C@@](N[*:1])(C(=O)[*:2])C1; mPEG2 = N-terminal 3-(2-methoxyethoxy)propanoic acid, COCCOCCC(=O)*; Phe(2-Cl) = N[C@@H](Cc1ccccc1Cl)C(=O)O; 1Nal = N[C@@H](Cc1cccc2ccccc12)C(=O)O; Bta = N[C@@H](Cc1csc2ccccc12)C(=O)O; αAllylPro = C=CC[C@@]1(C(=O)O)CCCN1; tBuAla = CC(C)(C)C[C@H](N)C(=O)O; Thr(ol) = C[C@@H](O)[C@H](N)CO; Propanoyl(3-OMe) = COCCC(=O)*; Leu(ol) = CC(C)C[C@H](N)CO; Alaol = C[C@@H](CO)N*; Ms = CS(=O)(=O)*
PARAMETER MEASURED: NanoBRET Abs IC50 (µM)

INSERT INTO assay_data (binder, parameter_measured, result_qualifier, endpoint_value) VALUES
  ('Ac-[αAllylPro]D[tBuAla][B5(4)]DDAAFL[PyrS2″][Phe(2-Cl)][Bta]-Alaol (staple 1-4, 4-11) [I-1250]', 'NanoBRET Abs IC50', '>', 20),
  ('Ms-[αAllylPro]D[tBuAla][B5(33)]DDAAFN[PyrS2][Phe(2-Cl)][Bta][dT]-NH2 (staple 1-4, 4-11; not fully specified; printed as MeSO2-PL3-Asp-Npg-B5-Asp-Asp-Ala-Ala-Phe-Asn-PyrS2-2C1F-BztA-dThr-NH2) [I-1258]', 'NanoBRET Abs IC50', '>', 20),
  ('Ac-[αAllylPro]D[tBuAla][B5(5)]DTAA[1Nal]T[PyrS2″]F[Bta]S-NH2 (staple 1-4, 4-11) [I-1266]', 'NanoBRET Abs IC50', '>', 20),
  ('mPEG2-[αAllylPro]D[tBuAla][B5(5)]DDAAFN[PyrS2″][Phe(2-Cl)][Bta][dT]-NH2 (staple 1-4, 4-11) [I-1253]', 'NanoBRET Abs IC50', '>', 20),
  ('Ac-[αAllylPro]D[tBuAla][B5(4)]DDAAFL[PyrS2″][Phe(2-Cl)][Bta][Thr(ol)] (staple 1-4, 4-11) [I-1249]', 'NanoBRET Abs IC50', '=', 25.2),
  ('Ac-[αAllylPro]D[tBuAla][B5(33)]DTALFT[PyrS2]F[Bta]S-NH2 (staple 1-4, 4-11) [I-1265]', 'NanoBRET Abs IC50', '=', 22.7),
  ('Ac-[αAllylPro]D[tBuAla][B5(33)]DTLAFT[PyrS2]F[Bta]S-NH2 (staple 1-4, 4-11) [I-1264]', 'NanoBRET Abs IC50', '>', 20),
  ('Ac-[αAllylPro]D[tBuAla][B5(4)]DDAAFT[PyrS2″][Phe(2-Cl)][Bta][Leu(ol)] (staple 1-4, 4-11) [I-1247]', 'NanoBRET Abs IC50', '>', 20),
  ('Ac-[αAllylPro]D[tBuAla][B5(4)]DDAAFT[PyrS2″][Phe(2-Cl)][Bta]-Alaol (staple 1-4, 4-11; also: C-terminal Alao1 group, meaning not given here) [I-1246]', 'NanoBRET Abs IC50', '=', 24.3),
  ('XDXXDDAAFTXFXQ (not fully specified; MeSO2-PL3-Asp-Npg-B5-Asp-Asp-Ala-Ala-Phe-Thr-S8-2C1F-BztA-Gln-NH2; stapled by olefin metathesis (PL3-B5 and B5-S8)) [I-1260]', 'NanoBRET Abs IC50', '=', 24),
  ('{Propanoyl(3-OMe)}-[αAllylPro]D[tBuAla][B5(33)]DDAAFN[PyrS2][Phe(2-Cl)][Bta][dT]-NH2 (staple 1-4, 4-11) [I-1259]', 'NanoBRET Abs IC50', '=', 18.1);
